Quick reference for growth inhibition among some compounds
Test: NCI Yeast Anticancer Drug Screen. Data for the cln2 rad14 strain (AID 165);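 further: 0% = growth equal to vehicle treated cultures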
Conditions: S. cerevisiae cln2 rad14 strain, at 50.0 µM, stronger effect = higher value
Compounds without any hit were thinned out: in the full panel of roughly 79,000, 15% have a hit.
Please reply with the bare figure in % and do not write the unit itself.

CC1=[N+]([O-])c2ccccc2C(=O)C1=O
33.6

Okay, now this compound:
Complete the entry with growth inhibition for O=C(Nc1ccccc1)Nc1ccc(-c2ccccc2)cc1 5.7

---

Quick reference for growth inhibition among some compounds
Assay: NCI Yeast Anticancer Drug Screen. Data for the sgs1 mgt1 strain (AID 161);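 further: 0% = growth of cultures given vehicle only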
Conditions: S. cerevisiae sgs1 mgt1 strain, at 50.0 µM, stronger effect = higher value
About 79,000 compounds went through this panel and 15% of them were active in at least one assay; those are over-represented in the sample as a whole.
Please reply with the bare figure in % and do not write the unit itself.

The following compounds have reported results that may help.
O=C1c2ccc(=O)[nH]c2C(=O)C2CC3=C(CCCC3)CC12 (stereo not given)
59.5
COC1=CCC2=C(CCO2)C1
-6.9
N#Cc1nc(CCC(C(=O)O)N2C(=O)c3ccccc3C2=O)oc1N (stereo not given)
-12.1

Complete the entry with growth inhibition for CC12CCCC=C1C(C)(C)C(O)CC2 (stereo not given) 2.95

Complete the entry with growth inhibition for CCOC(=O)CCC(=O)c1ccc2cc(OC)ccc2c1 11.8

Complete the entry with growth inhibition for COC(=O)c1ccccc1-n1c(-c2ccc([N+](=O)[O-])cc2)csc1=NC(=O)c1cccc([N+](=O)[O-])c1 19.4

Complete the entry with growth inhibition for c1ccc(N2CCSCC2)cc1 -21.9

Complete the entry with growth inhibition for Cc1cc(C)c(NS(=O)c2cccc(C(F)(F)F)c2)c(C)c1 (stereo not given) -61

Complete the entry with growth inhibition for CCNC(=S)OC1CCC2(C)C(=CCC3C2CCC2(C)C(C(C)CCC(CC)C(C)C)CCC32)C1 (stereo not given) -11.6

Complete the entry with growth inhibition for C=Cc1nnnn1C -5.85

Complete the entry with growth inhibition for C/C(=N/NS(=O)(=O)c1ccc(C)cc1)C(=NO)/C(C)=N\NS(=O)(=O)c1ccc(C)cc1 45.4

Complete the entry with growth inhibition for CC(C)(C)n1nnnc1N 6

Complete the entry with growth inhibition for Cc1ccccc1C1CCCCC1OS(C)(=O)=O (stereo not given) -15.2

Entry source: PubChem BioAssay (NCI)
